test-details: Inhalation exposure: Compound A concentration in lung, plasma and BALF (Example 2)
Type: in vivo, BALB/c mice
test-parameters: male, BALB/c, mouse, BALF, inhaled; mice, 30 min inhalation, nominal aerosol 0.2 mg/L, 8 h; read-out: Compound A concentration BALF
quantity-name: concentration at 8 h (ng/mL)
Report as a plain number; the unit ng/mL is understood.

## Task What value of concentration at 8 h has been reported for the following molecule? Nc1nc(N)c2nc(-c3cccc(O)c3)c(-c3cccc(O)c3)nc2n1
## Result 1370

---

test-details: Inhalation exposure: Compound A concentration in lung, plasma and BALF (Example 2)
Type: in vivo, BALB/c mice
test-parameters: male, BALB/c, mouse, BALF, inhaled; mice, 30 min inhalation, nominal aerosol 0.02 mg/L, 24 h; read-out: Compound A concentration BALF
quantity-name: concentration at 24 h (ng/mL)
Report as a plain number; the unit ng/mL is understood.

## Task What value of concentration at 24 h has been reported for the following compound? Nc1nc(N)c2nc(-c3cccc(O)c3)c(-c3cccc(O)c3)nc2n1
## Result 223

---

test-details: Inhalation exposure: Compound A concentration in lung, plasma and BALF (Example 2)
Format: in vivo, BALB/c mice
test-parameters: male, BALB/c, mouse, BALF, inhaled; mice, 30 min inhalation, nominal aerosol 0.02 mg/L, 0.25 h; read-out: Compound A concentration BALF
quantity-name: concentration at 0.25 h (ng/mL)
Report as a plain number; the unit ng/mL is understood.

## Task What value of concentration at 0.25 h has been reported for the following molecule? Nc1nc(N)c2nc(-c3cccc(O)c3)c(-c3cccc(O)c3)nc2n1 [Compound A]
## Result 1190

---

test-details: Inhalation exposure: Compound A concentration in lung, plasma and BALF (Example 2)
Format: in vivo, BALB/c mice
test-parameters: male, BALB/c, inhaled or intranasal, 0.15 mg/kg; mouse BALF, aerosol conc. 0.02 mg/L
Experimental: A series of compositions for pulmonary delivery were prepared by making a 20% suspension of compound A in a 5% tyloxapol solution in water. […] The actual concentrations of test article in the exposure atmospheres were determined by chemical analysis of timed filter samples collected directly from a nose-only exposure port during exposure. […] The filters and impactor stages were analyzed chemically by LRRI and are described below.
quantity-name: Tmax (min)
Report as a plain number; the unit min is understood.

## Task What value of Tmax has been reported for the following compound? Nc1nc(N)c2nc(-c3cccc(O)c3)c(-c3cccc(O)c3)nc2n1 [Compound A]
## Result 15

---

test-details: Inhalation exposure: Compound A concentration in lung, plasma and BALF (Example 2)
Assay type: in vivo, BALB/c mice
test-parameters: male, BALB/c, mouse, BALF, inhaled; mice, 30 min inhalation, nominal aerosol 0.02 mg/L, 8 h; read-out: Compound A concentration BALF
quantity-name: concentration at 8 h (ng/mL)
Report as a plain number; the unit ng/mL is understood.

## Task What value of concentration at 8 h has been reported for the following molecule? Nc1nc(N)c2nc(-c3cccc(O)c3)c(-c3cccc(O)c3)nc2n1
## Result 286

---

test-details: Inhalation exposure: Compound A concentration in lung, plasma and BALF (Example 2)
Assay type: in vivo, BALB/c mice
test-parameters: male, BALB/c, inhaled or intranasal, 0.7 mg/kg; mouse BALF, aerosol conc. 0.2 mg/L
quantity-name: Cmax
Quote the value and follow it with the unit of measurement.

## Task What value of Cmax has been reported for the following compound? Nc1nc(N)c2nc(-c3cccc(O)c3)c(-c3cccc(O)c3)nc2n1
## Result 5670 ng/mL

---

test-details: Inhalation exposure: Compound A concentration in lung, plasma and BALF (Example 2)
Assay type: in vivo, BALB/c mice
test-parameters: male, BALB/c, inhaled or intranasal; mouse lung, aerosol conc. 0.2 mg/L
quantity-name: Cmax (ng/g)
Report as a plain number; the unit ng/g is understood.

## Task What value of Cmax has been reported for the following compound? Nc1nc(N)c2nc(-c3cccc(O)c3)c(-c3cccc(O)c3)nc2n1 [Compound A]
## Result 67200

---

test-details: Inhalation exposure: Compound A concentration in lung, plasma and BALF (Example 2)
Format: in vivo, BALB/c mice
test-parameters: male, BALB/c, mouse, BALF, inhaled; mice, 30 min inhalation, nominal aerosol 0.2 mg/L, 2 h; read-out: Compound A concentration BALF
Protocol: A series of compositions for pulmonary delivery were prepared by making a 20% suspension of compound A in a 5% tyloxapol solution in water. […] The actual concentrations of test article in the exposure atmospheres were determined by chemical analysis of timed filter samples collected directly from a nose-only exposure port during exposure. […] The filters and impactor stages were analyzed chemically by LRRI and are described below.
quantity-name: concentration at 2 h (ng/mL)
Report as a plain number; the unit ng/mL is understood.

## Task What value of concentration at 2 h has been reported for the following molecule? Nc1nc(N)c2nc(-c3cccc(O)c3)c(-c3cccc(O)c3)nc2n1
## Result 3190

---

test-details: Solubility of Compound A
Format: physicochemical
test-parameters: water, aqueous buffer; pH below 2 and above 10; read-out: water solubility
quantity-name: solubility

## Task What value of solubility has been reported for the following compound? Nc1nc(N)c2nc(-c3cccc(O)c3)c(-c3cccc(O)c3)nc2n1
## Result > 20 mg/mL

---

test-details: Inhalation exposure: Compound A concentration in lung, plasma and BALF (Example 2)
Assay type: in vivo, BALB/c mice
test-parameters: male, BALB/c, mouse, lung, inhaled; mice, 30 min inhalation, nominal aerosol 0.07 mg/L, 1 h; read-out: Compound A concentration Lung
quantity-name: concentration at 1 h (ng/g)
Report as a plain number; the unit ng/g is understood.

## Task What value of concentration at 1 h has been reported for the following molecule? Nc1nc(N)c2nc(-c3cccc(O)c3)c(-c3cccc(O)c3)nc2n1
## Result 17200

---

test-details: Inhalation exposure: Compound A concentration in lung, plasma and BALF (Example 2)
Format: in vivo, BALB/c mice
test-parameters: male, BALB/c, mouse, lung, inhaled; mice, 30 min inhalation, nominal aerosol 0.07 mg/L, 0.5 h; read-out: Compound A concentration Lung
quantity-name: concentration at 0.5 h (ng/g)
Report as a plain number; the unit ng/g is understood.

## Task What value of concentration at 0.5 h has been reported for the following compound? Nc1nc(N)c2nc(-c3cccc(O)c3)c(-c3cccc(O)c3)nc2n1 [Compound A]
## Result 16600

---

test-details: Inhalation exposure: Compound A concentration in lung, plasma and BALF (Example 2)
Type: in vivo, BALB/c mice
test-parameters: male, BALB/c, inhaled or intranasal; mouse lung, aerosol conc. 0.07 mg/L
quantity-name: Cmax
Quote the value and follow it with the unit of measurement.

## Task What value of Cmax has been reported for the following molecule? Nc1nc(N)c2nc(-c3cccc(O)c3)c(-c3cccc(O)c3)nc2n1
## Result 22700 ng/g

---

test-details: Inhalation exposure: Compound A concentration in lung, plasma and BALF (Example 2)
Type: in vivo, BALB/c mice
test-parameters: male, BALB/c, mouse, BALF, inhaled; mice, 30 min inhalation, nominal aerosol 0.2 mg/L, 12 h; read-out: Compound A concentration BALF
quantity-name: concentration at 12 h (ng/mL)
Report as a plain number; the unit ng/mL is understood.

## Task What value of concentration at 12 h has been reported for the following molecule? Nc1nc(N)c2nc(-c3cccc(O)c3)c(-c3cccc(O)c3)nc2n1
## Result 1050

---

test-details: Inhalation exposure: Compound A concentration in lung, plasma and BALF (Example 2)
Assay type: in vivo, BALB/c mice
test-parameters: male, BALB/c, mouse, BALF, inhaled; mice, 30 min inhalation, nominal aerosol 0.2 mg/L, 24 h; read-out: Compound A concentration BALF
quantity-name: concentration at 24 h (ng/mL)
Report as a plain number; the unit ng/mL is understood.

## Task What value of concentration at 24 h has been reported for the following molecule? Nc1nc(N)c2nc(-c3cccc(O)c3)c(-c3cccc(O)c3)nc2n1 [Compound A]
## Result 694

---

test-details: Inhalation exposure: Compound A concentration in lung, plasma and BALF (Example 2)
Type: in vivo, BALB/c mice
test-parameters: male, BALB/c, mouse, BALF, inhaled; mice, 30 min inhalation, nominal aerosol 0.07 mg/L, 1 h; read-out: Compound A concentration BALF
quantity-name: concentration at 1 h
Quote the value and follow it with the unit of measurement.

## Task What value of concentration at 1 h has been reported for the following compound? Nc1nc(N)c2nc(-c3cccc(O)c3)c(-c3cccc(O)c3)nc2n1
## Result 1250 ng/mL

---

test-details: Inhalation exposure: Compound A concentration in lung, plasma and BALF (Example 2)
Type: in vivo, BALB/c mice
test-parameters: male, BALB/c, mouse, lung, inhaled; mice, 30 min inhalation, nominal aerosol 0.02 mg/L, 12 h; read-out: Compound A concentration Lung
quantity-name: concentration at 12 h (ng/g)
Report as a plain number; the unit ng/g is understood.

## Task What value of concentration at 12 h has been reported for the following compound? Nc1nc(N)c2nc(-c3cccc(O)c3)c(-c3cccc(O)c3)nc2n1
## Result 8670
